Ref: patent US12692269B2

Target: TEAD1 YAP50-100 (Homo sapiens, UniProt P28347)
Sequence (P28347 167-426 limits assumed): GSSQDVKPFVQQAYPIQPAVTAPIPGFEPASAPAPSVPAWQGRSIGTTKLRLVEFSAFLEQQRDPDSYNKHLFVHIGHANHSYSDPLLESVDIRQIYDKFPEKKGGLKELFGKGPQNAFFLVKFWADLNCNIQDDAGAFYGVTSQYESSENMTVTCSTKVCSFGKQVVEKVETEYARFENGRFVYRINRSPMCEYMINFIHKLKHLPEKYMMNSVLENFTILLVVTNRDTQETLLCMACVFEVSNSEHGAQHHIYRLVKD
Test: TEAD1-YAP HTRF (TR-FRET) protein-protein interaction assay
Conditions: TEAD1, YAP peptide 50-100, HTRF; read-out: TEAD1 YAP50-100 HTRF combined: EC50
pEC50: −log10 of the molar value.
Endpoint Label: pEC50

[[record]]
compound = "CC1CCN1C(=O)c1nn2c(=O)cc(-c3ccc(C4CCCCC4)cc3)[nH]c2c1C(=O)N1CC(CF)C1 (single isomer, unassigned) [Enantiomer B, Example 33]"
measurement = 7.10

[[record]]
compound = "O=C(c1c(-c2nccnc2C(F)(F)F)nn2c(=O)cc(-c3ccc(C4CCCCC4)cc3)[nH]c12)N1CC(CF)C1 [Compound 7]"
measurement = 6.70

[[record]]
compound = "O=C(c1c(-c2ccccn2)nn2c(=O)cc(-c3ccc(C4CCCCC4)cc3)[nH]c12)N1CC(CF)C1 [Compound 16]"
measurement = 7.22

[[record]]
compound = "O=C(c1c(-c2cnco2)nn2c(=O)cc(-c3ccc(C4CCCCC4)cc3)[nH]c12)N1CC(CF)C1 [Compound 39]"
measurement = 7.30

[[record]]
compound = "O=C(c1c(-c2ncccn2)nn2c(=O)cc(-c3ccc(C4CCCCC4)c(F)c3)[nH]c12)N1CC(CF)C1 [Compound 22]"
measurement = 6.85

[[record]]
compound = "Cc1nccnc1-c1nn2c(=O)cc(-c3ccc(C4CCCC4)cc3)[nH]c2c1C(=O)N1C[C@H](CF)[C@@H]1C [Compound 69]"
measurement = 7.40

[[record]]
compound = "CN(C)C(=O)c1nn2c(=O)cc(-c3ccc(CC4CCCC4)cc3)[nH]c2c1C(=O)N1CC(CF)C1 [Compound 2]"
measurement = 7.22


* * *

Quick list: TEAD4 YAP50-100 HTRF combined: Max % Inhibition per entry.
Target: TEAD4 YAP50-100 (Homo sapiens)
Sequence (Q15561 217-434 limits assumed): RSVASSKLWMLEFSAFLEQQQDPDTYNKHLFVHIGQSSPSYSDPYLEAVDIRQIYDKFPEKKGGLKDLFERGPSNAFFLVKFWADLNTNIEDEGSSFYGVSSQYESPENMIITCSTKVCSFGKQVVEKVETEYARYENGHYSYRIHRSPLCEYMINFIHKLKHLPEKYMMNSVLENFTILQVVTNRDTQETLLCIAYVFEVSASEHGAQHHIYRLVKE
Experiment: TEAD4-YAP HTRF (TR-FRET) protein-protein interaction assay
Assay type: binding
Conditions: TEAD4, YAP peptide 50-100, HTRF
Endpoint Label: TEAD4 YAP50-100 HTRF combined: Max % Inhibition (%)

[[record]]
molecule = "CN(C)C(=O)c1nn2c(=O)cc(-c3ccc(C4CCCCC4)c(F)c3)[nH]c2c1C(=O)N1CC(CF)C1 [Compound 4]"
unit_text = "%"
measurement = 48.5

[[record]]
molecule = "Cc1nccnc1-c1nn2c(=O)cc(-c3ccc(C4CCCCC4)cc3)[nH]c2c1C(=O)N(C)C [Compound 20]"
unit_text = "%"
measurement = 37.0

[[record]]
molecule = "CC(C)(C)c1ccc(COc2cc(=O)n3nc(-c4cnccn4)c(C(=O)N4CC(CF)C4)c3[nH]2)cc1 [Compound 53]"
unit_text = "%"
measurement = 65.5

[[record]]
molecule = "O=C(c1c(C2CNCCO2)nn2c(=O)cc(-c3ccc(C4CCCCC4)cc3)[nH]c12)N1CC(CF)C1 (single isomer, unassigned) [Enantiomer B, Example 63]"
unit_text = "%"
measurement = 35.0

[[record]]
molecule = "O=C(c1c(-c2cccnc2)nn2c(=O)cc(-c3ccc(C4CCCCC4)cc3)[nH]c12)N1CC(CF)C1 [Compound 37]"
unit_text = "%"
measurement = 27.5

[[record]]
molecule = "COc1nccnc1-c1nn2c(=O)cc(-c3ccc(C4CCCCC4)cc3)[nH]c2c1C(=O)N1CC(CF)C1 [Compound 13]"
unit_text = "%"
measurement = 50.0

[[record]]
molecule = "[2H]C1([2H])C([2H])([2H])C([2H])([2H])C([2H])(c2ccc(-c3cc(=O)n4nc(-c5nccnc5C)c(C(=O)N5C[C@H](CF)[C@@H]5C)c4[nH]3)cc2)C([2H])([2H])C1([2H])[2H] [Compound 72]"
unit_text = "%"
measurement = 54.0

[[record]]
molecule = "Cc1nccnc1-c1nn2c(=O)cc(-c3ccc(C4CCCC4)cc3)[nH]c2c1C(=O)N1C[C@H](CF)[C@@H]1C [Compound 69]"
unit_text = "%"
measurement = 62.5

[[record]]
molecule = "CCN(C)C(=O)c1nn2c(=O)cc(-c3ccc(C4CCCCC4)cc3)[nH]c2c1C(=O)N1CC(CF)C1 [Compound 35]"
unit_text = "%"
measurement = 52.5

[[record]]
molecule = "Cc1c(-c2nn3c(=O)cc(-c4ccc(C5CCCCC5)cc4)[nH]c3c2C(=O)N2CC(CF)C2)ncn1C [Compound 30]"
unit_text = "%"
measurement = 45.0

[[record]]
molecule = "O=C(c1c(-c2ccccc2)nn2c(=O)cc(-c3ccc(C4CCCCC4)cc3)[nH]c12)N1CC(CF)C1 [Compound 38]"
unit_text = "%"
measurement = 41.0

[[record]]
molecule = "Cc1nccnc1-c1nn2c(=O)cc(-c3ccc(O[C@@H](c4ccccc4)C(F)(F)F)cc3)[nH]c2c1C(=O)N1CC(CF)C1 [Compound 67]"
unit_text = "%"
measurement = 72.5

[[record]]
molecule = "C[C@H]1[C@@H](CF)CN1C(=O)c1c(-c2cnccn2)nn2c(=O)cc(-c3ccc(C4CCCCC4)cc3)[nH]c12 (single isomer, unassigned) [Isomer A, Example 39]"
unit_text = "%"
measurement = 51.5

[[record]]
molecule = "C[C@H]1[C@@H](CF)CN1C(=O)c1c(C(=O)N(C)C)nn2c(=O)cc(-c3ccc(C4CCCCC4)cc3)[nH]c12 [Compound 5]"
unit_text = "%"
measurement = 56.0

[[record]]
molecule = "CC(C)(C)c1ccc(COc2cc(=O)n3nc(-c4ncccn4)c(C(=O)N4CC(CF)C4)c3[nH]2)cc1 [Compound 54]"
unit_text = "%"
measurement = 60.5

[[record]]
molecule = "Cc1nccnc1-c1nn2c(=O)cc(-c3ccc(C4CCCCC4)cc3)[nH]c2c1C(=O)N1CC(CF)C1 [Compound 27]"
unit_text = "%"
measurement = 54.1

[[record]]
molecule = "C[C@H]1[C@@H](CF)CN1C(=O)c1c(-c2cnccn2)nn2c(=O)cc(-c3ccc(CC4CCCC4)cc3)[nH]c12 (single isomer, unassigned) [Isomer A, Example 44]"
unit_text = "%"
measurement = 40.0

[[record]]
molecule = "Cn1cnc(-c2nn3c(=O)cc(-c4ccc(C5CCCCC5)cc4)[nH]c3c2C(=O)N2CC(CF)C2)c1 [Compound 32]"
unit_text = "%"
measurement = 38.5

[[record]]
molecule = "CN(C)C(=O)c1nn2c(=O)cc(-c3cc(F)c(C4CCCCC4)c(F)c3)[nH]c2c1C(=O)N1CC(CF)C1 [Compound 3]"
unit_text = "%"
measurement = 39.5

[[record]]
molecule = "Cc1nccnc1-c1nn2c(=O)cc(-c3ccc(O[C@H](c4ccccc4)C(F)(F)F)cc3)[nH]c2c1C(=O)N1CC(CF)C1 [Compound 68]"
unit_text = "%"
measurement = 64.5

[[record]]
molecule = "CC1CCN1C(=O)c1nn2c(=O)cc(-c3ccc(C4CCCCC4)cc3)[nH]c2c1C(=O)N1CC(CF)C1 (single isomer, unassigned) [Enantiomer A, Example 33]"
unit_text = "%"
measurement = 48.5

[[record]]
molecule = "C[C@H]1[C@@H](CF)CN1C(=O)c1c(-c2ncccn2)nn2c(=O)cc(-c3ccc(C4CCCCC4)cc3)[nH]c12 (single isomer, unassigned) [Isomer B, Example 40]"
unit_text = "%"
measurement = 49.5

[[record]]
molecule = "C[C@@H](CO)c1nn2c(=O)cc(-c3ccc(C4CCCCC4)cc3)[nH]c2c1C(=O)N1CC(CF)C1 (single isomer, unassigned) [Enantiomer B, Example 55]"
unit_text = "%"
measurement = 36.5

[[record]]
molecule = "Cc1ccnc(-c2nn3c(=O)cc(-c4ccc(C5CCCCC5)cc4)[nH]c3c2C(=O)N2CC(CF)C2)c1 [Compound 18]"
unit_text = "%"
measurement = 47.0

[[record]]
molecule = "Cc1cncc(-c2nn3c(=O)cc(-c4ccc(C5CCCCC5)cc4)[nH]c3c2C(=O)N2CC(CF)C2)n1 [Compound 28]"
unit_text = "%"
measurement = 43.5


* * *

Quick list: TEAD1 TAZ HTRF combined: Max % Inhibition per entry.
Target: TEAD1 TAZ (amino acids 13-57) (Homo sapiens, UniProt P28347)
Assay: TEAD1-TAZ HTRF (TR-FRET) protein-protein interaction assay
Format: binding
Conditions: TEAD1, TAZ peptide, HTRF
Endpoint Label: TEAD1 TAZ HTRF combined: Max % Inhibition (%)

[[record]]
compound = "Cc1nccnc1-c1nn2c(=O)cc(-c3ccc(CC4CCCC4)cc3)[nH]c2c1C(=O)N1C[C@H](CF)[C@@H]1C (single isomer, unassigned) [Isomer B, Example 42]"
measurement = 59.0

[[record]]
compound = "Cc1nccnc1-c1nn2c(=O)cc(-c3ccc(C4CCCCC4)cc3)[nH]c2c1C(=O)N1CC(CF)C1"
measurement = 74.5

[[record]]
compound = "CN(C)C(=O)c1nn2c(=O)cc(-c3ccc(CC4CCCC4)cc3)[nH]c2c1C(=O)N1CC(CF)C1"
measurement = 47.0

